System: SN12C
MEASUREMENT_NOTES: NCI tumour cell line growth inhibition, 48 h
Calls of active or inactive are those of the source. No stated cut-off is given here; in the data, active = GI50 up to about 1.1 µM and inactive = higher.
Output constraint: value belongs to Y for active, N for inactive

These recorded examples may help you get a feel for the data.
- MOLECULE: "CC(C)CC(=O)CC(O)C(Cl)(Cl)Cl (stereo unspecified)"
  ASSIGNED_LABEL: "N"
- MOLECULE: "COc1ncnc2c(Cl)c(C(O)c3ccccc3)c(Cl)cc12 (stereo unspecified)"
  ASSIGNED_LABEL: "N"
- MOLECULE: "Cc1cc(O)c2c(c1)C(C1OC(CO)C(O)C(O)C1O)c1cc(O)cc(O)c1C2=O (stereo unspecified)"
  ASSIGNED_LABEL: "N"
- MOLECULE: "O=C1C(Cl)N(c2ccc(Cl)cc2)C1c1c[nH]c2ccccc12 (stereo unspecified)"
  ASSIGNED_LABEL: "N"
- MOLECULE: "O=C1OC(=O)c2cc(S(=O)(=O)c3ccc4c(c3)C(=O)OC4=O)ccc21"
  ASSIGNED_LABEL: "N"

Incoming: Kindly provide the recorded test outcome for the following molecule: COC(=O)C(Cc1ccccc1)NC(=O)CNC(=O)CSc1nnc(COc2ccc(Cl)cc2)n1-c1ccccc1 (stereo unspecified)
Outgoing: N

Incoming: Could you please tell me the result logged for C/C(=N\NC(=[Se])N1CCN(c2ccccn2)CC1)c1ccccn1 in this assay?
Outgoing: Y

Incoming: Outcome? Clc1ccc(Cc2nc3cc(Cl)ccc3o2)cc1
Outgoing: N

Incoming: Could you kindly confirm the outcome this assay logged for COc1ccc(/C=C\c2cc(OC)c(OC)c(OC)c2)cc1OC(=O)NCCN(C)C ?
Outgoing: Y

Incoming: Lab log entry: O=C(c1cccs1)N(C(=S)OCc1ccccn1)c1ccccc1 — outcome as called in the assay?
Outgoing: N

Incoming: What is the recorded call for this molecule in the test? O=S1(=O)Cc2ccc3c4c2-c2c(ccc5ccc(c-4c25)CS(=O)(=O)C3)C1
Outgoing: N

* * *

Tested on: NCI-H226
MEASUREMENT_NOTES: NCI tumour cell line growth inhibition, 48 h
Active and inactive are the calls of the source. Cut-off read from the data, not from the text of the source: active = GI50 up to about 1.1 µM and inactive = higher.
Would you mind telling me the reported GI50 of each entry?

Guide cases for GI50, answers given:
- COMPOUND: "CC(=O)NC(NCCN)(c1ccccc1)c1ccccc1"
  GI50: "> 100 µM (inactive)"
- COMPOUND: "O=S1(=O)Cc2ccc3c4c2-c2c(ccc5ccc(c-4c25)CS(=O)(=O)C3)C1"
  GI50: "> 100 µM (inactive)"
- COMPOUND: "C/C(CN1C(=O)c2ccccc2C1=O)=N\\NS(=O)(=O)c1ccccc1"
  GI50: "> 100 µM (inactive)"
- COMPOUND: "O=S(=O)(/N=C(\\NO)Nc1ccc(Cl)cc1)c1cccc2nsnc12"
  GI50: "81.1 µM (inactive)"
- COMPOUND: "CC(C)C1/C(=N/O)CC(c2ccccc2)N(N=O)C1c1ccccc1 (configuration not stated)"
  GI50: "37.1 µM (inactive)"

Batch: GI50 for all items listed.
1. O=C(NC1(C(=O)O)CC1c1ccccc1)c1ccccc1 (configuration not stated)
2. O=C(O)C1CC2CC(=O)C1C2 (configuration not stated)
3. CCOC(=O)C1=C(Nc2ccccc2)SC/C1=N\NC(=O)Cc1ccccc1
4. O=S(=O)(c1cc(Cl)ccc1Cl)N1CCN(c2cccc(Cl)c2)CC1

Outgoing:
["> 100 µM (inactive)", "> 100 µM (inactive)", "> 100 µM (inactive)", "> 100 µM (inactive)"]

State recorded GI50 for all listed compounds.
1. CC(=O)c1ccc(Oc2c3ccccc3nc3ccccc23)cc1
2. C#CCCOC(=O)c1ccccc1OC(C)=O
3. CC(C)CC(N)C(=O)O (configuration not stated)

Outgoing:
["9.1 µM (inactive)", "> 100 µM (inactive)", "> 100 µM (inactive)"]
